Entry source: patent US20180185450A1

- system name: human glucagon receptor (human, UniProt P47871 26-477)
- Sequence (P47871 26-477): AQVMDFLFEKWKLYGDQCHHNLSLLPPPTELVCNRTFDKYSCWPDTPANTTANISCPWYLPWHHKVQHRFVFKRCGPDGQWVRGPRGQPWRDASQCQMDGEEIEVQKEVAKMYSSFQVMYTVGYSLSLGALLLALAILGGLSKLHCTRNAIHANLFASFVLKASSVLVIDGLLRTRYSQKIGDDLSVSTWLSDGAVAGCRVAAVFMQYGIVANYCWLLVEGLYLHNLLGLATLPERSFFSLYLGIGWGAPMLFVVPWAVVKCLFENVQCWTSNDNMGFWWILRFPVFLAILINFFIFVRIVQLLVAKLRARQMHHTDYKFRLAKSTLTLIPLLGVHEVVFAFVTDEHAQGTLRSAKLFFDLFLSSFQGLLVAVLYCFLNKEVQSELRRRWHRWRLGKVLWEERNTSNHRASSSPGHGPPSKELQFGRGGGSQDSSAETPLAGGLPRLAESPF
- assay info: cell-based or functional assay
Numbered stars: 1 amine (or outer) side, 2 acyl side, 3 side chain; on linkers, the order of the positions; unused ones are H or OH. Square brackets hold non-standard residues; d marks the D form. Side chains are listed from the residue outwards. Ends that are not written are not given here. γGlu = O=C(O)[C@H](CCC(=O)[*:2])N[*:1]; X70 = not defined here; x53 = not defined here; Aib = CC(C)(N)C(=O)O
Overview of recorded EC50 hGlucagon-R (cAMP) for various binders

# binder, unit text, EC50 hGlucagon-R (cAMP)
measured = [
    ("HXHGTFTSDLSKQKESRRAQDFIEWLKAGGPSSGAPPPS (dSer at 2; K(γE-x53) at 14; C-terminal NH2) [SEQ ID NO: 73]", "pM", 1.7),
    ("H[Aib]HGTFTSDLSKQK([γGlu-X70])EEEAARLFIEWLKAGGPSSGAPPPS-NH2 (reading uncertain) [SEQ ID NO: 217]", "pM", 2.1),
    ("HXQGTFTSDLSKQKEKRRAQDFIEWLKNGGPSSGAPPPS (dSer at 2; K(γE-x53) at 14; C-terminal NH2) [SEQ ID NO: 88]", "pM", 1.6),
    ("H[Aib]QGTFTSDLSKQK([γGlu-x53])DSKAAQDFIEWLKAGGPSSGAPPPS-NH2 (reading uncertain) [SEQ ID NO: 31]", "pM", 9.3),
    ("HXQGTFTSDLSKQKDSRRAQDFIEWLKNAGPSSGAPPPS (dSer at 2; K(γE-x53) at 14; C-terminal NH2) [SEQ ID NO: 93]", "pM", 2.6),
    ("HXQGTFTSDLSKQKESRAAQDFIEWLKAGGPSSGAPPPS (dSer at 2; K(GABA-x53) at 14; C-terminal NH2) [SEQ ID NO: 50]", "pM", 11.1),
]
